Tested on: AML-12 cells
Assay: Dose-response growth inhibition of liver parenchymal cells
Type: cell-based
Conditions: AML12; mouse liver parenchymal cells
Readout type: pIC50
In textbook form, pIC50 equals minus log to base ten of the concentration in mol/L.

Lab note: CC(C)[C@H](N)C(=O)NCCCn1cc(/C=C2\S/C(=N\c3ccc(N4CCOCC4)cc3)N(Cc3ccc(F)cc3)C2=O)c2ccccc21 [Tc3] gave pIC50 of 5.21

###

System: pLKO.1 HepG2 cells
Assay: Dose-response growth inhibition, control knockdown cells
Assay type: cell-based
Conditions: Homo sapiens
Readout type: pIC50
In textbook form, pIC50 equals minus log to base ten of the concentration in mol/L.

Lab note: CC(C)[C@H](N)C(=O)NCCCn1cc(/C=C2\S/C(=N\c3ccc(N4CCOCC4)cc3)N(Cc3ccc(F)cc3)C2=O)c2ccccc21 [Tc3] gave pIC50 of 5.65

###

Test system: HepG2 cells
Assay: Anti-tumor activity assay (IC50 value), cells counted after three days
Settings: Homo sapiens, HepG2, 72 h, read-out: IC50 HepG2
Quick reference for pIC50 among some compounds
In textbook form, pIC50 equals minus log to base ten of the concentration in mol/L.

Illustrative cases are given below, each with its answer.
CSCC[C@H](N)C(=O)NCCCn1cc(/C=C2\S/C(=N\c3ccc(N4CCOCC4)cc3)N(Cc3ccc(F)cc3)C2=O)c2ccccc21 ... 5.06
CC(C)[C@H](N)C(=O)NCCCn1cc(/C=C2\S/C(=N\c3ccc(N4CCOCC4)cc3)N(Cc3ccc(F)cc3)C2=O)c2ccccc21 ... 5.86

Lab note: NCCCn1cc(/C=C2\S/C(=N\c3ccc(N4CCOCC4)cc3)N(Cc3ccc(F)cc3)C2=O)c2ccccc21 gave pIC50 of 5.29

Lab note: NCCCn1cc(/C=C2\SC(=O)N(Cc3ccc(F)cc3)C2=O)c2ccccc21 gave pIC50 of 4.80

Lab note: O=C(NCCCn1cc(/C=C2\SC(=O)N(Cc3ccc(F)cc3)C2=O)c2cc(Br)ccc21)[C@@H]1CCCN1 gave pIC50 of 5.03

###

Tested on: HepG2 cells
Assay: Anti-tumor activity assay (IC50 value), cells counted after three days;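 also: HepG2 cells exposed to a drug concentration series for 3 days, then counted with a hemocytometer, inhibition relative to untreated control cell number, IC50 obtained by curve fitting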
Conditions: Homo sapiens, HepG2, 72 h, read-out: IC50 HepG2
IC50 vs 7 µM: less than gives met; not less than gives not met.

CC(C)[C@H](N)C(=O)NCCCn1cc(/C=C2\S/C(=N\c3ccc(C(F)(F)F)cc3)N(Cc3ccc(F)cc3)C2=O)c2ccccc21 ... not met
CC(C)[C@H](N)C(=O)NCCCn1cc(/C=C2\S/C(=N\c3ccc(F)cc3)N(Cc3ccc(F)cc3)C2=O)c2ccccc21 ... not met

Q: IC50 under 7 µM? Item: CC(C)[C@H](N)C(=O)NCCCn1cc(/C=C2\S/C(=N/C3CCCCC3)N(Cc3ccc(F)cc3)C2=O)c2ccccc21
A: not met

Q: IC50 under 7 µM? Item: CC(C)C(=O)NCCCn1cc(/C=C2\SC(=O)N(Cc3ccc(F)cc3)C2=O)c2ccccc21
A: not met

Q: IC50 under 7 µM? Item: CC[C@H](C)[C@H](N)C(=O)NCCCn1cc(/C=C2\S/C(=N\c3ccc(N4CCOCC4)cc3)N(Cc3ccc(F)cc3)C2=O)c2ccccc21
A: met

Q: IC50 under 7 µM? Item: CC(C)[C@H](N)C(=O)NCCCn1cc(/C=C2\SC(=O)N(Cc3ccc(F)cc3)C2=O)c2ccccc21
A: met

Q: IC50 under 7 µM? Item: O=C(NCCCn1cc(/C=C2\S/C(=N\c3ccc(N4CCOCC4)cc3)N(Cc3ccc(F)cc3)C2=O)c2ccccc21)[C@@H]1CCCN1
A: met

Q: IC50 under 7 µM? Item: CC(C)[C@H](N)C(=O)NCCCn1cc(/C=C2\S/C(=N\c3ccc(Cl)cc3)N(Cc3ccc(F)cc3)C2=O)c2ccccc21
A: not met

Q: IC50 under 7 µM? Item: COc1cc2nccc(Oc3ccc(NC(=O)NC4CC4)c(Cl)c3)c2cc1C(N)=O [Lenvatinib, reference compound]
A: not met

Q: IC50 under 7 µM? Item: COc1cc2nccc(Oc3ccc(NC(=O)C4(C(=O)Nc5ccc(F)cc5)CC4)cc3)c2cc1OC [Cabozantinib, reference compound]
A: met

Q: IC50 under 7 µM? Item: CCCCCCCC(=O)NCCCn1cc(/C=C2\SC(=O)N(Cc3ccc(F)cc3)C2=O)c2ccccc21
A: not met

Q: IC50 under 7 µM? Item: CC(C)CCC(=O)NCCCn1cc(/C=C2\SC(=O)N(Cc3ccc(F)cc3)C2=O)c2ccccc21
A: not met
